B1: ANKRD9 (parent)
chain: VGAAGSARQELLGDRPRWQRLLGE

Variants of: B1
METHOD_SUMMARY: protein stability index of a GFP-peptide fusion (GPS, HEK-293T) (PSI 1-6); higher = more stable;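 also: lentivirally expressed fusions sorted by FACS into six bins by GFP to DsRed ratio, PSI derived from sequencing read proportions per bin multiplied by bin number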
CONDITION: c terminus: a fixed tail appended
Listed below: protein stability index values for each entry.

SEQUENCE	protein stability index
VGAAGSCRQELLGDRPRWQRLLGE [A7C]	3.44
VGAAGSARQELLGDRPRWQRLKGE [L22K]	3.57
VGAAGSARQELLGDRPRWQRLLGT [E24T]	3
VGRAGSARQELLGDRPRWQRLLGE [A3R]	3.06
VGAAGSARQELLGDRCRWQRLLGE [P16C]	3.24
VGAAGSAGQELLGDRPRWQRLLGE [R8G]	3.68
VGAAGSARQELLADRPRWQRLLGE [G13A]	3.9
VGAAGKARQELLGDRPRWQRLLGE [S6K]	2.72
VGAAGSARQELLGDRPRWFRLLGE [Q19F]	2.51
VGAAGSARQRLLGDRPRWQRLLGE [E10R]	2.71
VGAAGSAKQELLGDRPRWQRLLGE [R8K]	3.15
VGAAGSARQELLGDDPRWQRLLGE [R15D]	4.12
VGAAGSARQELIGDRPRWQRLLGE [L12I]	4.09
VGAAGSAIQELLGDRPRWQRLLGE [R8I]	3.08
VLAAGSARQELLGDRPRWQRLLGE [G2L]	2.71
VGAAGSARQELLGDRPRWQRMLGE [L21M]	3.03
VGAAASARQELLGDRPRWQRLLGE [G5A]	3
VGAAGSARQELGGDRPRWQRLLGE [L12G]	3.79
VGAAGSARQEFLGDRPRWQRLLGE [L11F]	4.5
VGAAGSARQELLGDRPRWQRLLGY [E24Y]	2.37
VCAAGSARQELLGDRPRWQRLLGE [G2C]	2.24
